Data origin, for the record: patent US20240140986A1

- Tested on: IFNγ-induced NO production in RAW 264.7 cells
- assay_comment: Nitric Oxide Suppression Assay (IFNγ-induced NO, Griess nitrite readout)
- Format: cell-based, mouse
- condition_label: Table 2; ratio to RTA402
quantity: Avg NO IC50 Relative to RTA402 (fold)
Quick reminder: number only, in fold, skip the unit.

[[record]]
smiles_notation = "C[C@@H]1[C@H]2[C@H]3C(=O)C=C4[C@@]5(C)C=C(C#N)C(=O)C(C)(C)[C@@H]5CC[C@@]4(C)[C@]3(C)CC[C@@]2(CNC(=O)OC(C)(C)C)CC[C@H]1C"
quantity = "Avg NO IC50 Relative to RTA402 (fold)"
result_units = "fold"
quantitative_readout = 3.72

[[record]]
smiles_notation = "C[C@@H]1[C@H]2[C@H]3C(=O)C=C4[C@@]5(C)C=C(C#N)C(=O)C(C)(C)[C@@H]5CC[C@@]4(C)[C@]3(C)CC[C@@]2(CC(N)=O)CC[C@H]1C"
quantity = "Avg NO IC50 Relative to RTA402 (fold)"
result_units = "fold"
quantitative_readout = 4.60


Provide value of Avg NO IC50 Relative to RTA402 (fold) for this record tested with IFNγ-induced NO production in RAW 264.7 cells: C[C@@H]1[C@H]2[C@H]3C(=O)C=C4[C@@]5(C)C=C(C#N)C(=O)C(C)(C)[C@@H]5CC[C@@]4(C)[C@]3(C)CC[C@@]2(/C=N/O)CC[C@H]1C
4.07

Provide value of Avg NO IC50 Relative to RTA402 (fold) for this record tested with IFNγ-induced NO production in RAW 264.7 cells: C[C@@H]1[C@H]2[C@H]3C(=O)C=C4[C@@]5(C)C=C(C#N)C(=O)C(C)(C)[C@@H]5CC[C@@]4(C)[C@]3(C)CC[C@@]2(c2nc(C3CC3)no2)CC[C@H]1C
9.86

###

- System: IFNγ-induced NO production in RAW 264.7 cells
- assay_comment: Nitric Oxide Suppression Assay (IFNγ-induced NO, Griess nitrite readout)
- Assay type: cell-based, mouse
- condition_label: Table 2; ratio to RTA402
- Description: Tissue Culture: RAW 264.7, a mouse macrophage cell line, was obtained from American Type Culture Collection (Manassas VA) and maintained in the log phase of growth in Roswell Park Memorial Institute Medium 1640 (RPMI 1640) supplemented with 10% heat inactivated fetal bovine serum and 1% penicillin-streptomycin. […] Nitric Oxide Suppression Assay. […] Afterwards, air bubbles were removed using ethanol vapor and absorbance was measured using a Spectramax M2e plate reader with a wavelength set to 525 nm. […]
quantity: Avg NO IC50 Relative to RTA402 (fold)
Answer format: number, then unit.

Known results for molecules:
[[record]]
molecule = "C[C@@H]1[C@H]2[C@H]3C(=O)C=C4[C@@]5(C)C=C(C#N)C(=O)C(C)(C)[C@@H]5CC[C@@]4(C)[C@]3(C)CC[C@@]2(N)CC[C@H]1C [Compound T16]"
result = "7.63 ± 2.99 fold"

[[record]]
molecule = "C[C@H]1[C@H](C)CCC23CC[C@@]4(C)[C@]5(C)CC[C@H]6C(C)(C)C(=O)C(C#N)=C[C@]6(C)C5=CC(=O)[C@]4(OC2)[C@H]13 [Compound T12]"
result = "3.29 ± 0.81 fold"

[[record]]
molecule = "C[C@@H]1[C@H]2[C@H]3C(=O)C=C4[C@@]5(C)C6O[C@@]6(C#N)C(=O)C(C)(C)[C@@H]5CC[C@@]4(C)[C@]3(C)CC[C@@]2(CNC(=O)C2CC2)CC[C@H]1C (stereo partly shown) [Compound T98]"
result = "4.45 ± 1.25 fold"


Now examine the next entry.
Which Avg NO IC50 Relative to RTA402 (fold) value is on record for C[C@@H]1[C@H]2[C@H]3C(=O)C=C4[C@@]5(C)C=C(C#N)C(=O)C(C)(C)[C@@H]5CC[C@@]4(C)[C@]3(C)CC[C@@]2(Cn2ccnn2)CC[C@H]1C [Compound T50] ?
3.18 ± 0.30 fold
